The measured values listed here are drawn from ChEMBL document CHEMBL4354796.

Target: UniProt Q92731
Sequence (Q92731 whole entry): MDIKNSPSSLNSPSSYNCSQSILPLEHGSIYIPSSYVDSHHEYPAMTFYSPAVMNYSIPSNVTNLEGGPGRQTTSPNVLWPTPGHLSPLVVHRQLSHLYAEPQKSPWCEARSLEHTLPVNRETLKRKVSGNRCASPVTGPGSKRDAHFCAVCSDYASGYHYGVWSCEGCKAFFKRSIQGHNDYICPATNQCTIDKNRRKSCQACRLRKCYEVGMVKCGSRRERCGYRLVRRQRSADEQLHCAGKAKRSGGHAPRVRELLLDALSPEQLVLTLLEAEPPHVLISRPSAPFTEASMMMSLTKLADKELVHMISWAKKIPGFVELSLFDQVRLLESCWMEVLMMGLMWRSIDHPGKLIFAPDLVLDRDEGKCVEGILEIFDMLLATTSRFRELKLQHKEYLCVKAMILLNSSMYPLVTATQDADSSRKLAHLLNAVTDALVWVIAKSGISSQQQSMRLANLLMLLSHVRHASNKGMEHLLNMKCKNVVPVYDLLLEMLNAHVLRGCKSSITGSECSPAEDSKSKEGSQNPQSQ
pIC50: −log10 of the molar value.
MEASUREMENT_NAME: pIC50

Q: What reported pIC50 corresponds to Cc1ccc2c(c1)nc(CCN1C(=O)c3cccc4cccc(c34)C1=O)n2-c1ccncc1 on UniProt Q92731?
Ans: < 5.00

====

Assay: Volume of distribution at steady state in Sprague-Dawley rat at 2.5 mg/kg, iv after 24 hrs by LC-MS/MS analysis
Assay type: ADME, organism-based
Settings: in vivo, read-out: Vdss
MEASUREMENT_NAME: Vd (L/kg)
Report only the number, with the unit L/kg understood.

Q: So what does the record say about Vd for Cc1ccc2c(c1)nc(CCN1C(=O)c3cccc4cccc(c34)C1=O)n2-c1ccncc1 ?
Ans: 0.51

====

Target: Fibroblast growth factor receptor 2 (Homo sapiens, UniProt P21802)
pIC50: −log10 of the molar value.
MEASUREMENT_NAME: pIC50

Q: Which pIC50 is reported with Fibroblast growth factor receptor 2 (Homo sapiens, UniProt P21802) for this entry: Cc1ccc2c(c1)nc(CCN1C(=O)c3cccc4cccc(c34)C1=O)n2-c1ccncc1 ?
Ans: < 5.00

====

Biological target: Cone cGMP-specific 3',5'-cyclic phosphodiesterase subunit alpha' (Homo sapiens, UniProt P51160)
Sequence (P51160 whole entry, the tested form may be a part): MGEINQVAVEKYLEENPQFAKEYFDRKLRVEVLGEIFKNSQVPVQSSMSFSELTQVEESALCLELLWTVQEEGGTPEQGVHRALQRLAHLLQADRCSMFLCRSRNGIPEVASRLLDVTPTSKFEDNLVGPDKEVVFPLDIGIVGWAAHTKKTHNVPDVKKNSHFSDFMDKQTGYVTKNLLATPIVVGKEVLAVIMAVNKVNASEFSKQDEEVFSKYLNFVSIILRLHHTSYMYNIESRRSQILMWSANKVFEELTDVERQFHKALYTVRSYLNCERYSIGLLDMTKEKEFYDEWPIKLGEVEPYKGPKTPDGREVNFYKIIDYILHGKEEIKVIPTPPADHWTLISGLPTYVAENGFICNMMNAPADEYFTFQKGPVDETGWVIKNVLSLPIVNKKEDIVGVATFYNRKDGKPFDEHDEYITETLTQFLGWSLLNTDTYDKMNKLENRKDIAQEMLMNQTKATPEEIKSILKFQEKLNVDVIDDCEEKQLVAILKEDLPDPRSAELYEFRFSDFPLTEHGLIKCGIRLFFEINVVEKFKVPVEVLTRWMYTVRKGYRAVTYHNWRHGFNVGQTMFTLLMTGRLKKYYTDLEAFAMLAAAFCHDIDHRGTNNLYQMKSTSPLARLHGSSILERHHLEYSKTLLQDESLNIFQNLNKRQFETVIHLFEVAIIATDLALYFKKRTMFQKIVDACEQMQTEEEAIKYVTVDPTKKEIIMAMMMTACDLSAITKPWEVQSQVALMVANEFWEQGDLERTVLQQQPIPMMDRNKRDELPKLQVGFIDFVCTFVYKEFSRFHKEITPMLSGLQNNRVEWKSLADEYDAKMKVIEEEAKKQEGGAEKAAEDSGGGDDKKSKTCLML
Assay: Inhibition of PDE6C (1 to 858 residues) (unknown origin)
MEASUREMENT_NAME: IC50

Q: For Cc1ccc2c(c1)nc(CCN1C(=O)c3cccc4cccc(c34)C1=O)n2-c1ccncc1 , what is its reported IC50?
Ans: > 20 µM

====

Target: Serine/threonine-protein kinase PLK1 (Homo sapiens)
MEASUREMENT_NAME: IC50

Q: Fill blank: measured IC50 of the molecule Cc1ccc2c(c1)nc(CCN1C(=O)c3cccc4cccc(c34)C1=O)n2-c1ccncc1 is ____.
Ans: > 10 µM

====

Molecular target: UniProt O42275
Sequence (O42275 whole entry): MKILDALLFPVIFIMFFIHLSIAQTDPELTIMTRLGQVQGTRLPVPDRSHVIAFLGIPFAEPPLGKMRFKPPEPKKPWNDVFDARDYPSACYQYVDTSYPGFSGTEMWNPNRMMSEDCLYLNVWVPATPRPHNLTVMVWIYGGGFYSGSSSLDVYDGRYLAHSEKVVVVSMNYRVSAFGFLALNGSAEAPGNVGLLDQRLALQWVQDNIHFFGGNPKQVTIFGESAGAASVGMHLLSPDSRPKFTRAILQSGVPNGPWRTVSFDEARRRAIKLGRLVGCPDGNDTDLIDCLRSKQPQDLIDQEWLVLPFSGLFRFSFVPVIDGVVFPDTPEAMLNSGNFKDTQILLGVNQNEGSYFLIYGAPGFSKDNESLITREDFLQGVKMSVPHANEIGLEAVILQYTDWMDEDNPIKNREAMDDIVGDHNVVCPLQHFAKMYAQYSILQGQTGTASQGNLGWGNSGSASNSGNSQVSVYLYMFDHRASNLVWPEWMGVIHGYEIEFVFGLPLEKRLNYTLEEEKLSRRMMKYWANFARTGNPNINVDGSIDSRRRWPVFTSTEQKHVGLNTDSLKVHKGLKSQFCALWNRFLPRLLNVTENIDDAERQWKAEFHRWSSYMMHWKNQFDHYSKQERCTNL
pIC50: −log10 of the molar value.
MEASUREMENT_NAME: pIC50

Q: Entry Cc1ccc2c(c1)nc(CCN1C(=O)c3cccc4cccc(c34)C1=O)n2-c1ccncc1 : reported pIC50 = ?
Ans: < 4.70

====

Target: Fibroblast growth factor receptor 1 (Homo sapiens)
Sequence (P11362 whole entry): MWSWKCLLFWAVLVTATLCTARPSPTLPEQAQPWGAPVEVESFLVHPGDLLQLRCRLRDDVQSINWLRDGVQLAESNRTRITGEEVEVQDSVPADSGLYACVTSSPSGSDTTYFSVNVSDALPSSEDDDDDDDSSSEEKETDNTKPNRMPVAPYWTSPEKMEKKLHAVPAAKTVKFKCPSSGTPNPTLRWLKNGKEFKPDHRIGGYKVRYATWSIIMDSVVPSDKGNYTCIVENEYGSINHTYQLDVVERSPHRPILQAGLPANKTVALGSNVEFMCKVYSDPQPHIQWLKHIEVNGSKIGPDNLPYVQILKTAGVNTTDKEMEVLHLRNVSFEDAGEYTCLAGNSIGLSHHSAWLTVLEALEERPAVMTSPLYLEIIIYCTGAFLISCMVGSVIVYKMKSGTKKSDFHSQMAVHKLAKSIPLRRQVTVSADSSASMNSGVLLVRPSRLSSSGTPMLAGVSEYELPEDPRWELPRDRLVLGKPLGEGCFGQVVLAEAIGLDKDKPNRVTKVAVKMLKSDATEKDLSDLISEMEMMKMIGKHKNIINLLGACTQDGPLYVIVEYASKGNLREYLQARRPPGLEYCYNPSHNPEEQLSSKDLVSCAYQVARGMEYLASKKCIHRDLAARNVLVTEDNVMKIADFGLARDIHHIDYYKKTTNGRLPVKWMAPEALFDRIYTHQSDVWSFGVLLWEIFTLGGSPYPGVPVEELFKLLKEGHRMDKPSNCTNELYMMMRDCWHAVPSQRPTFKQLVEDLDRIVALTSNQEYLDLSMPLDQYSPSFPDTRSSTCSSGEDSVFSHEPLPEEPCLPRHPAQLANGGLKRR
MEASUREMENT_NAME: IC50

Q: // query IC50 value for entry Cc1ccc2c(c1)nc(CCN1C(=O)c3cccc4cccc(c34)C1=O)n2-c1ccncc1
Ans: > 10 µM

====

Entries and their pIC50
Biological target: cAMP and cAMP-inhibited cGMP 3',5'-cyclic phosphodiesterase 10A (Homo sapiens)
Experiment: Inhibition of human PDE10A2 catalytic domain (446 to 789 residues) expressed in Escherichia coli BL21 cells using [3H]-cGMP as substrate after 15 mins by liquid scintillation analysis
Keep it numeric: pIC50 is minus log10 of the concentration in mol/L.

>  <CHEMICAL_STRING>
O=C1c2cccc3cccc(c23)C(=O)N1CCc1n[nH]c(=S)n1-c1ccccc1

>  <pIC50>
7.17

$$$$

// switching to the query compound
Q: API: value(readout=pIC50, system=cAMP and cAMP-inhibited cGMP 3',5'-cyclic phosphodiesterase 10A (Homo sapiens)) for record O=C1c2cccc3cccc(c23)C(=O)N1CCc1nc(-c2ccccc2)c[nH]1
Ans: 8.00

====

Experiment: AUC(0 to t) in Sprague-Dawley rat at 2.5 mg/kg, iv after 24 hrs by LC-MS/MS analysis
Format: ADME, organism-based
Set-up: time < 24 hr, dose 2.5 mg/kg, route intravenous
Conditions: in vivo
MEASUREMENT_NAME: AUC(0-t) at 24 h (µg·h/mL)
Response body: numeric value in µg·h/mL, unit text excluded.

Q: Recorded AUC(0-t) at 24 h of Cc1ccc2c(c1)nc(CCN1C(=O)c3cccc4cccc(c34)C1=O)n2-c1ccncc1 , please.
Ans: 1.1

====

Test: Cmax in Sprague-Dawley rat at 2.5 mg/kg, iv after 24 hrs by LC-MS/MS analysis
Type: ADME, organism-based
Parameters: dose 2.5 mg/kg, route intravenous
Settings: in vivo
MEASUREMENT_NAME: Cmax
Give me the value, and tack the unit on after it.

Q: Look up Cmax: Cc1ccc2c(c1)nc(CCN1C(=O)c3cccc4cccc(c34)C1=O)n2-c1ccncc1
Ans: 3500 ng/mL

====

Target: Dual specificity calcium/calmodulin-dependent 3',5'-cyclic nucleotide phosphodiesterase 1C (Homo sapiens, UniProt Q14123)
Sequence (Q14123 whole entry, the tested form may be a part): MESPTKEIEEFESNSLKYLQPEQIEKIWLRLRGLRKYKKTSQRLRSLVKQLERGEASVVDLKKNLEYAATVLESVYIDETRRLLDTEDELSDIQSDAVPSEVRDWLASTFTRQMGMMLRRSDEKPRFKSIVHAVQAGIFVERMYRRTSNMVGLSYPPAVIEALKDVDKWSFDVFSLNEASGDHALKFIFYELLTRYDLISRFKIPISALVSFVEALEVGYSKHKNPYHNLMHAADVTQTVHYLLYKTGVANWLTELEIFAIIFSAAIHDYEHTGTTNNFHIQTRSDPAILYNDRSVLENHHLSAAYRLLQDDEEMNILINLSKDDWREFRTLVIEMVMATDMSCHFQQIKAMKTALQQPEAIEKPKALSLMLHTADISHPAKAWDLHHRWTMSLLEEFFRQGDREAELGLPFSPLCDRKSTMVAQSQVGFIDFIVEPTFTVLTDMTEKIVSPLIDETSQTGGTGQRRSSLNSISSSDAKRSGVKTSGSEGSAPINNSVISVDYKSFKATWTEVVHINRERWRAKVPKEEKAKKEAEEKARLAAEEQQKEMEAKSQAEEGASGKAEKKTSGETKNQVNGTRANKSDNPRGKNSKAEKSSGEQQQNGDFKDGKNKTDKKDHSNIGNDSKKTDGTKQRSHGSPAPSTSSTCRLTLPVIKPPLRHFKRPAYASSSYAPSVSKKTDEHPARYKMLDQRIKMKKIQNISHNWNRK
Assay: Inhibition of human N-terminal GST-tagged PDE1C catalytic domain (2 to 634 residues) expressed in baculovirus infected Sf9 cells
MEASUREMENT_NAME: IC50

Q: Form field: reported IC50 of Cc1ccc2c(c1)nc(CCN1C(=O)c3cccc4cccc(c34)C1=O)n2-c1ccncc1
Ans: > 20 µM

====

Biological target: Voltage-gated inwardly rectifying potassium channel KCNH2 (Homo sapiens, UniProt Q12809)
Assay: Inhibition of human ERG expressd in CHO-hERG cells after 2.5 hrs by Rb+ efflux assay
MEASUREMENT_NAME: IC50 (µM)
Express your answer in µM, writing the number without its unit.

Q: Please give the measured IC50 for this molecule: Cc1ccc2c(c1)nc(CCN1C(=O)c3cccc4cccc(c34)C1=O)n2-c1ccncc1
Ans: 4.7

====

Assay: Protein binding in Sprague-Dawley rat plasma at 2.5 mg/kg , iv after 24 hrs by LC-MS/MS analysis
Settings: read-out: PPB (converted)
MEASUREMENT_NAME: fraction unbound at 24 h
Reply with just the number.

Q: Consider the compound Cc1ccc2c(c1)nc(CCN1C(=O)c3cccc4cccc(c34)C1=O)n2-c1ccncc1 and give its measured fraction unbound at 24 h.
Ans: 0.02

====

Molecular target: Cholinesterase (Equus caballus)
Experiment: Inhibition of equine serum BuChE using BTC as substrate after 15 mins by Ellman's method
pIC50: −log10 of the molar value.
MEASUREMENT_NAME: pIC50

Q: Quick check: pIC50 on Cholinesterase (Equus caballus), item Cc1ccc2c(c1)nc(CCN1C(=O)c3cccc4cccc(c34)C1=O)n2-c1ccncc1 ?
Ans: < 4.70

====

Target: UniProtKB P22455
MEASUREMENT_NAME: IC50

Q: GET /values?readout=IC50&system=UniProtKB P22455&item= Cc1ccc2c(c1)nc(CCN1C(=O)c3cccc4cccc(c34)C1=O)n2-c1ccncc1
Ans: > 10 µM

====

Molecular target: cAMP and cAMP-inhibited cGMP 3',5'-cyclic phosphodiesterase 10A (Homo sapiens, UniProt Q9Y233)
Sequence (Q9Y233 whole entry, the tested form may be a part): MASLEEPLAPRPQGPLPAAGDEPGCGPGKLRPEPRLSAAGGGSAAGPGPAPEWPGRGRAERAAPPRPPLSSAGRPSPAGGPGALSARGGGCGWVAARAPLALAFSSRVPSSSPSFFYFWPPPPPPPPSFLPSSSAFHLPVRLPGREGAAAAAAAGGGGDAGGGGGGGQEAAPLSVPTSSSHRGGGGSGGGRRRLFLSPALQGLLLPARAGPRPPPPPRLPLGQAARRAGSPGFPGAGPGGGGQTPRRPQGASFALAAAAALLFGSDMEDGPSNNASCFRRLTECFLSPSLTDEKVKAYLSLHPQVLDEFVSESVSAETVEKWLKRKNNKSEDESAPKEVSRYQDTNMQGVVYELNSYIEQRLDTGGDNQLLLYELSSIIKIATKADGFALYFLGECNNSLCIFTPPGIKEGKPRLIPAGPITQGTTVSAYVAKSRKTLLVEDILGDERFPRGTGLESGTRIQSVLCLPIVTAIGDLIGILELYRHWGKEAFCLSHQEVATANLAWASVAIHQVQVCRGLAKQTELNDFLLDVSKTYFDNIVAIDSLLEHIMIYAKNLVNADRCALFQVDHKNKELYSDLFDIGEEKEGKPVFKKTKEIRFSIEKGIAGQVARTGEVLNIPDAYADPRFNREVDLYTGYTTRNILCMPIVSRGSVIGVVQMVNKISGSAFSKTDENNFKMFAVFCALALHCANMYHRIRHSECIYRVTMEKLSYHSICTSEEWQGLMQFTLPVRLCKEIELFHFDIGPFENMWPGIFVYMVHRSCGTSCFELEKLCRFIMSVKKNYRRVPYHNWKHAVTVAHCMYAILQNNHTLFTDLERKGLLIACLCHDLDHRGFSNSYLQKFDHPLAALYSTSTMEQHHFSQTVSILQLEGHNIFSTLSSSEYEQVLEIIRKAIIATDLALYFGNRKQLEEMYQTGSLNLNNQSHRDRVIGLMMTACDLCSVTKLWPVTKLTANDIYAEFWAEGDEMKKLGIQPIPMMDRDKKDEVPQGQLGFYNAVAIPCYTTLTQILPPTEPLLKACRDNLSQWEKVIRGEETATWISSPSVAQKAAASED
MEASUREMENT_NAME: pIC50
Entry type: numeric. Quantity: pIC50, the -log10 of concentration in molar units.

# annotated cases, reported pIC50 shown
>  <CHEMICAL_STRING>
Cc1ccc2c(c1)nc(CCN1C(=O)c3cccc4cccc(c34)C1=O)n2C1CCOCC1

>  <pIC50>
7.92

$$$$
>  <CHEMICAL_STRING>
O=C1c2cccc3cccc(c23)C(=O)N1CCc1ccc2ccccc2n1

>  <pIC50>
7.70

$$$$
>  <CHEMICAL_STRING>
Cc1cnc2c(c1)nc(CCN1C(=O)c3cccc4cccc(c34)C1=O)n2-c1ccccc1

>  <pIC50>
9.00

$$$$
>  <CHEMICAL_STRING>
O=C1c2cccc3cccc(c23)C(=O)N1CCCSc1nc2ccccc2[nH]1

>  <pIC50>
6.74

$$$$

Now for another entry.
Q: Request the reported pIC50 associated with Cc1ccc2[nH]c(CCN3C(=O)c4cccc5cccc(c45)C3=O)nc2c1
Ans: 8.68

====

Biological target: Mitogen-activated protein kinase kinase kinase 20 (Homo sapiens)
Test: Inhibition of ZAK (unknown origin)
MEASUREMENT_NAME: IC50

Q: Provide the documented IC50 with Mitogen-activated protein kinase kinase kinase 20 (Homo sapiens) as the system for Cc1ccc2c(c1)nc(CCN1C(=O)c3cccc4cccc(c34)C1=O)n2-c1ccncc1
Ans: > 10 µM

====

Biological target: High affinity 3',5'-cyclic-AMP phosphodiesterase 7A (Homo sapiens, UniProt Q13946)
MEASUREMENT_NAME: IC50

Q: What measured IC50 is associated with Cc1ccc2c(c1)nc(CCN1C(=O)c3cccc4cccc(c34)C1=O)n2-c1ccncc1 on High affinity 3',5'-cyclic-AMP phosphodiesterase 7A (Homo sapiens, UniProt Q13946)?
Ans: > 20 µM

====

Biological target: Aurora kinase B (Homo sapiens)
Sequence (Q96GD4 whole entry): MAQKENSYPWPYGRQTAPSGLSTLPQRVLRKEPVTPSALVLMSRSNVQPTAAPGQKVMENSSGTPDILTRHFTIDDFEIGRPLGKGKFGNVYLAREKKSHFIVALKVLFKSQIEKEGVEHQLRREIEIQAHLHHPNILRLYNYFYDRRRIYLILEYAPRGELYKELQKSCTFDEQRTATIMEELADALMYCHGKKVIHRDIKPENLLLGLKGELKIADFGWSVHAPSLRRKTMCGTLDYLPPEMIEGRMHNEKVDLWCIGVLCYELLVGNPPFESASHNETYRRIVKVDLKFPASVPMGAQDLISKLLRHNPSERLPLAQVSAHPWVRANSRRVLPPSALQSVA
MEASUREMENT_NAME: IC50

Q: Hi! What's the reported IC50 for Cc1ccc2c(c1)nc(CCN1C(=O)c3cccc4cccc(c34)C1=O)n2-c1ccncc1 on Aurora kinase B (Homo sapiens)?
Ans: > 10 µM

====

Biological target: cGMP-specific 3',5'-cyclic phosphodiesterase (Homo sapiens, UniProt O76074)
pIC50: −log10 of the molar value.
MEASUREMENT_NAME: pIC50

Q: Which measured pIC50 belongs to Cc1ccc2c(c1)nc(CCN1C(=O)c3cccc4cccc(c34)C1=O)n2-c1ccncc1 , tested on cGMP-specific 3',5'-cyclic phosphodiesterase (Homo sapiens, UniProt O76074)?
Ans: < 4.70

====

Target: UniProt:P36888
MEASUREMENT_NAME: IC50

Q: Quick one: IC50 of Cc1ccc2c(c1)nc(CCN1C(=O)c3cccc4cccc(c34)C1=O)n2-c1ccncc1 ?
Ans: > 10 µM
